So I've got a bunch of compounds here, and I need their IC50 values.
system: chloroquine-resistant Plasmodium falciparum W2 strain; test: Antiplasmodial in vitro assay (HRPII sandwich ELISA, 72 h); type: cell-based; conditions: Plasmodium falciparum, W2, 72 h, P. falciparum W2 strain, 72 h, HRPII ELISA; mean of three experiments; read-out: IC50
A number alone suffices; assume µM.

Exercise: For the compound O=C1NC2=C(C(=O)N(CCc3ccccc3)C2)C(c2ccc([N+](=O)[O-])cc2)N1 (stereo not shown) [2j] , give its reported IC50.
Key: 25.6

Exercise: Look up and state reported IC50 for O=C1NC2=C(C(=O)N(Cc3ccccc3)C2)C(c2ccccc2Cl)N1 (stereo not shown) [3h]
Key: 26.7

Exercise: Supply recorded IC50 for CCOC(=O)C1=C(CCl)NC(=O)NC1c1ccc(Cl)cc1 (stereo not shown) [1d] here.
Key: 1.96

Exercise: Give the reported IC50 for this compound. CCOC(=O)C1=C(CCl)NC(=O)NC1c1ccc(O)c(OC)c1 (stereo not shown) [1l]
Key: 3

Exercise: Specify measured IC50 for CCOC(=O)C1=C(CCl)NC(=O)NC1c1ccccc1 (stereo not shown) [1a] .
Key: 6.38

Exercise: Supply reported IC50 belonging to this compound: CCOC(=O)C1=C(CCl)NC(=O)NC1c1ccc(Br)cc1 (stereo not shown) [1f]
Key: 1.76

Exercise: Answer with the recorded IC50 of CCOC(=O)C1=C(CCl)NC(=O)NC1c1ccc(OC)cc1OC (stereo not shown) [1i] only.
Key: 2.98

Exercise: Let me know recorded IC50 for CCOC(=O)C1=C(CCl)NC(=O)NC1c1cc(OC)c(OC)c(OC)c1 (stereo not shown) [1g] , thanks.
Key: 24.1

Exercise: Using known records, supply IC50 for CCOC(=O)C1=C(CCl)NC(=O)NC1c1ccc(OC)c(OC)c1 (stereo not shown) [1k]
Key: 3

Exercise: Specify IC50 for CCOC(=O)C1=C(CCl)NC(=O)NC1c1ccccc1Cl (stereo not shown) [1h] and stop.
Key: 3.12

Exercise: Specify reported IC50 for the compound shown: CCOC(=O)C1=C(CCl)NC(=O)NC1c1cccc(Br)c1 (stereo not shown) [1c]
Key: 6.17

Exercise: Specify reported IC50 for the compound shown: O=C1NC2=C(C(=O)N(Cc3ccccc3)C2)C(c2ccc(Cl)cc2)N1 (stereo not shown) [3d]
Key: 45

Exercise: Tell us which IC50 value is on record for O=C1NC2=C(C(=O)N(Cc3ccccc3)C2)C(c2ccc(Br)cc2)N1 (stereo not shown) [3f]
Key: 26

Exercise: State, in one line, measured IC50 of COc1ccc(C2NC(=O)NC3=C2C(=O)N(CCc2ccccc2)C3)cc1 (stereo not shown) [2b]
Key: 26.4

Exercise: Annotate the compound CCOC(=O)C1=C(CCl)NC(=O)NC1c1ccc([N+](=O)[O-])cc1 (stereo not shown) [1j] with its measured IC50.
Key: 6

Exercise: Give a short answer stating reported IC50 for COc1ccccc1C1NC(=O)NC2=C1C(=O)N(CCc1ccccc1)C2 (stereo not shown) [2e] .
Key: 22
